These data points were gathered from ChEMBL document CHEMBL1764995.

Procedure Details: Oral bioavailability in rat at 2 mg/kg, iv and 10 mg/kg, po iv
Type: ADME, organism-based
Conditions: in vivo
Property Measured: bioavailability (%)
Respond numerically; units are % and should not be typed.

input: What value of bioavailability has been recorded for this entry: Cc1cc(C)cc(-c2cnc3cc(Cl)c(-c4cnn(C)c4)cc3c2OCC[C@H]2CCCCN2)c1
output: 27

----------
Procedure Details: Half life in rat at 2 mg/kg, iv and 5 mg/kg, po
Format: ADME, organism-based
Conditions: in vivo
Property Measured: half-life (h)
Hi! Could you send only the number? It should be in h, unit omitted.

input: Could you tell me which half-life is on file for Cc1cc(C)cc(-c2cnc3cc(Cl)c(-c4cccc(O)c4)cc3c2OCCCN)c1 ?
output: 2.9
